- TARGET UNDER TEST: T1, huCTLA-4 ECD (his-tag) (human, UniProt P16410 37-162)
- T1 construct: also called HX1 hCTLA4 his; HX1 huCTLA4 his; not shown: his-tag
- T1 sequence: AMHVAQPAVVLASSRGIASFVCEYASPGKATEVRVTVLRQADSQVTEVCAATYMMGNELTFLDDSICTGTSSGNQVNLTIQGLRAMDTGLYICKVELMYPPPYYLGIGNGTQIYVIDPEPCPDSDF
- PROTOCOL NOTES: ELISA, coated huCTLA-4 his

BINDER	binding result
HuJS007-78 (antibody, V domains shown, 1A5 VH5 + 4B7VL6; constant regions not specified) VH: QVQLQESGPGLVKPSQTLSLTCAVSGYSISSGYYWNWIRQPPGKGLEWIGYIGYDGSNYYNPSLKSRVTMSVDTSKNQFSLKLSSVTAVDTAVYYCARNYYSGYFDSWGQGTTVTVSS VL: DIVMTQSPDSLAVSLGERATINCKASQNVGTYVAWYQQKPGQPPKLLIYSTSYRYSGVPDRFSGSGSGTDFTLTISSLQAEDVAVYYCHQYDTYPLTFGQGTKLEIK	binds
HuJS007-100 (antibody, V domains shown, 4B7 VH2-5 + 4B7VL1; constant regions not specified) VH: QVQLQESGPGLVKPSQTLSLTCAVSGYSITSGYYWNWIRQPPGKGLEWIGYIGYDGSNNYNPSLKNRVTMSVDTSKNQFSLKLSSVTAVDTAVYYCARDYYSGYFDSWGQGTTVTVSS VL: DIVMTQSPDSLAVSLGERATINCKASQNVGTYVAWYQQKPGQPPKPLIYSTSYRYSGVPDRFSGSGSGTDFTLTISSLQAEDVAVYFCHQYDTYPLTFGAGTKLELK	binds
HuJS007-89 (antibody, V domains shown, 1A5 VH6 + 4B7VL8; constant regions not specified) VH: QVQLQESGPGLVKPSQTLSLTCAVSGYSISSGYYWNWIRQFPGKGLEWMGYIGYDGSNYYNPSLKNRVTMSVDTSKNQFSLKLSSVTAVDTAVYYCARNYYSGYFDSWGQGTTVTVSS VL: DIVMTQSPDSLAVSLGERATINCKASQNVGTYVAWYQQKPGQPPKPLIYSTSYRYSGVPDRFSGSGSGTDFTLTISSLQAEDVAVYFCHQYDTYPLTFGQGTKLEIK	binds
